Experimental details: in vitro
Test settings: human, hela cells, % viability
Assignment: determine reported viability at 28.5 h, 10 µM for the given molecules.
Answer with a number only, understood to be in %.

[Q] Supply viability at 28.5 h, 10 µM value. Item: CN1CCN(C)C(COc2ncccc2C(F)(F)F)C1 (centres unmarked)
[A] 90.5

[Q] Supply viability at 28.5 h, 10 µM value. Item: CCOc1ccc2nc(NC(=O)c3nc(SCc4ccccc4)ncc3Cl)sc2c1
[A] 97.1

[Q] Supply viability at 28.5 h, 10 µM value. Item: O=C(COc1ccc(S(=O)(=O)NC2CCCCC2)cc1)Nc1ccc2c(c1)OCO2
[A] 84.5

[Q] Supply viability at 28.5 h, 10 µM value. Item: CC(C)C1OC(NC2CC(C)(C)NC(C)(C)C2)=NC1=O (centres unmarked) [CBK070360T]
[A] 97.1

[Q] Supply viability at 28.5 h, 10 µM value. Item: CCOC(=O)CCCNC(=O)N1CCCC(C(=O)O)C1 (centres unmarked)
[A] 83.5

---

Assignment: determine reported viability at 28.5 h, 10 µM for the given molecules.
Experimental details: in vitro
Test settings: human, hela cells, % viability
Answer with a number only, understood to be in %.

[Q] Supply viability at 28.5 h, 10 µM value. Item: O=C(O)CC(NCc1ccccc1)C(=O)Nc1ccc(Cl)cc1 (stereo not drawn) [CBK267141]
[A] 95.4

[Q] Supply viability at 28.5 h, 10 µM value. Item: COc1ccccc1C(=O)NC1CN2CCC1CC2 (stereo not drawn) [CBK018475C]
[A] 75.5

[Q] Supply viability at 28.5 h, 10 µM value. Item: Cn1ccc(C2=C(N)C(C#N)C3=C(CC(C)(C)CC3=O)O2)c1 (stereo not drawn) [CBK022168]
[A] 109

[Q] Supply viability at 28.5 h, 10 µM value. Item: O=C(c1ccc(-c2cncc(-c3ccc(O)cc3)n2)cc1Cl)N1CCOCC1 [CBK123790]
[A] 94

[Q] Supply viability at 28.5 h, 10 µM value. Item: O=C(N/N=C/c1ccc(-c2ccc([N+](=O)[O-])cc2)o1)c1cccnc1 [CBK262287]
[A] 92.3

[Q] Supply viability at 28.5 h, 10 µM value. Item: Cc1ccc(CNC(=O)c2ccc3c(c2)nc(N2CC[C@H](O)C2)n3C)s1 [CBK306837]
[A] 90.9

[Q] Supply viability at 28.5 h, 10 µM value. Item: c1ccc(-c2cccc(-c3cc(Nc4ccc(N5CCOCC5)cc4)ncn3)c2)cc1 [CBK090930]
[A] 90.2

[Q] Supply viability at 28.5 h, 10 µM value. Item: Cc1ccc(C2=CCN(C(=O)c3cccc(S(=O)(=O)N(C)C)c3)CC2)cc1 [CBK298273]
[A] 90.9

[Q] Supply viability at 28.5 h, 10 µM value. Item: COC(=O)c1cccc(Oc2nc(OC)cc(OC)n2)c1 [CBK092219]
[A] 66.1

---

Assignment: determine reported viability at 28.5 h, 10 µM for the given molecules.
Experimental details: in vitro
Test settings: human, hela cells, % viability
Answer with a number only, understood to be in %.

[Q] Supply viability at 28.5 h, 10 µM value. Item: O=C(CCn1c(C(F)F)cc2cccnc21)N1CCOCC1
[A] 101

[Q] Supply viability at 28.5 h, 10 µM value. Item: CN(C)C(CNc1nccnc1-c1ccccc1F)c1cccnc1 (stereo not shown)
[A] 101

[Q] Supply viability at 28.5 h, 10 µM value. Item: CN1CCN(c2cccc(-c3ccc(CNC(=O)OC(C)(C)C)cc3)n2)CC1
[A] 95.2

[Q] Supply viability at 28.5 h, 10 µM value. Item: Cc1ccc(CNCCn2nnc(-c3ccc(CN4CCC(C)CC4)cc3)n2)cc1 [CBK154882T]
[A] 93.3

[Q] Supply viability at 28.5 h, 10 µM value. Item: COCCNS(=O)(=O)c1cccc2c1CN(C(=O)CC1CCCC1)CC2
[A] 101

[Q] Supply viability at 28.5 h, 10 µM value. Item: O=C(/C=C/c1ccc(-c2ccccc2[N+](=O)[O-])o1)Nc1ccc(-c2nc3ncccc3o2)cc1
[A] 99.2

[Q] Supply viability at 28.5 h, 10 µM value. Item: CC(=O)c1ccc(OCc2nc(N)nc(Nc3ccccc3)n2)cc1
[A] 83.1

[Q] Supply viability at 28.5 h, 10 µM value. Item: Cn1c(=N)n(CC(=O)O)c2ccccc21 [CBK262926B]
[A] 90.4

[Q] Supply viability at 28.5 h, 10 µM value. Item: Cc1ccc(Cl)cc1N1CCN(C(=O)COc2ccc(S(=O)(=O)Nc3ccc(F)cc3)cc2)CC1
[A] 92.1

[Q] Supply viability at 28.5 h, 10 µM value. Item: O=C(Oc1n[nH]c2ccccc12)c1ccc(Cl)cc1
[A] 100

[Q] Supply viability at 28.5 h, 10 µM value. Item: Cc1nc(CC(=O)NC(Cc2ccsc2)c2nccs2)cs1 (stereo not shown)
[A] 87.5

[Q] Supply viability at 28.5 h, 10 µM value. Item: CN1CCN(Cc2nc3c(c(=O)n(C)c(=O)n3C)n2Cc2ccc(Br)cc2)CC1
[A] 87.9

[Q] Supply viability at 28.5 h, 10 µM value. Item: CC(C)(C)S(=O)(=O)c1ccc2nc3c(n2c1)CCCC3
[A] 94.9

[Q] Supply viability at 28.5 h, 10 µM value. Item: FC(F)(F)c1nc2ccccc2nc1SC1CCCCC1
[A] 97.2

[Q] Supply viability at 28.5 h, 10 µM value. Item: COc1cc(Nc2cccc3c2C(=O)c2ccccc2C3=O)c(OC)cc1C=O
[A] 109

[Q] Supply viability at 28.5 h, 10 µM value. Item: CC(CCCC(C)(C)O)NCCO (stereo not shown)
[A] 96.3

[Q] Supply viability at 28.5 h, 10 µM value. Item: Cc1cnc2[nH]c(C3CC3)c(CN3CC(C)OC(C)C3)c2c1 (stereo not shown)
[A] 91.8

[Q] Supply viability at 28.5 h, 10 µM value. Item: COc1ccc(/C=C(\C#N)c2nc3ccccc3n2Cc2c(C)ccc3ccccc23)cc1
[A] 119

[Q] Supply viability at 28.5 h, 10 µM value. Item: Cc1cc(NC(=O)c2ccc3ccccc3c2)nc2c1c(=O)oc1ccccc12
[A] 117

---

Experimental details: in vitro
Test settings: human, hela cells, % viability
Readout: viability at 28.5 h, 10 µM (%)
Answer with a number only, understood to be in %.

[Q] Supply viability at 28.5 h, 10 µM value. Item: CC(=O)NCCSc1cc(N2CCCC2)ncn1 [CBK105621]
[A] 106

[Q] Supply viability at 28.5 h, 10 µM value. Item: O=[N+]([O-])c1ccc(N2CCN(S(=O)(=O)c3ccc4ccccc4c3)CC2)c(C(F)(F)F)c1 [CBK264827]
[A] 103

[Q] Supply viability at 28.5 h, 10 µM value. Item: CCOC(=O)C1CCN(CCOc2ccc3ccccc3c2)CC1 [CBK270128C]
[A] 95.4

[Q] Supply viability at 28.5 h, 10 µM value. Item: COC(=O)C1(Cc2ccccc2-c2ccncc2)CCOCC1 [CBK284709]
[A] 95.2

[Q] Supply viability at 28.5 h, 10 µM value. Item: CNC(=O)C1(Cc2ccc(-c3ccccc3)cc2)CCN(C(=O)Cc2ccccc2)CC1 [CBK285764]
[A] 103

[Q] Supply viability at 28.5 h, 10 µM value. Item: CC1CC1C(=O)N1C2CCC1CC(O)(Cn1ccc3ccncc31)C2 (stereo not drawn) [CBK284653]
[A] 85.6

[Q] Supply viability at 28.5 h, 10 µM value. Item: CCc1nc2c(OCc3ccccc3OC)cccn2c1N(C)C(=O)C(C)C [CBK147763]
[A] 97

[Q] Supply viability at 28.5 h, 10 µM value. Item: CN(C)CC1CCCN(C(=O)c2cc3cc(F)ccc3n2C)C1 (stereo not drawn) [CBK282122]
[A] 85.6

[Q] Supply viability at 28.5 h, 10 µM value. Item: Cc1ccc(Cn2c(CN3CCOCC3)nc3c2c(=O)n(C)c(=O)n3C)cc1 [CBK269583]
[A] 91.1

---

Experimental details: in vitro
Test settings: human, hela cells, % viability
Readout: viability at 28.5 h, 10 µM (%)
Answer with a number only, understood to be in %.

[Q] Supply viability at 28.5 h, 10 µM value. Item: CC1CCN(C(=O)COC(=O)c2cnc(-c3ccncc3)s2)CC1
[A] 94.6

[Q] Supply viability at 28.5 h, 10 µM value. Item: Cn1cnnc1SCC(C)(C)NS(=O)(=O)c1ccccc1
[A] 96.4

[Q] Supply viability at 28.5 h, 10 µM value. Item: Cc1oc(C(=O)Nc2ccc(C(=O)O)cc2)cc1COc1ccccc1
[A] 94.2

[Q] Supply viability at 28.5 h, 10 µM value. Item: CCCn1cnc2c1CN(C(C)=O)[C@H](C(=O)OC)C2
[A] 101

[Q] Supply viability at 28.5 h, 10 µM value. Item: CCc1ccc(C(=O)NC(Cc2c[nH]c3ccccc23)C(=O)O)cc1 (stereo not drawn)
[A] 101

[Q] Supply viability at 28.5 h, 10 µM value. Item: COc1ccccc1NC(=O)c1[nH]nc(O)c1Cc1c(Cl)cccc1Cl
[A] 90.2

[Q] Supply viability at 28.5 h, 10 µM value. Item: Nc1nc(SCCCC(=O)NC2CCCCC2)nc2sc3c(c12)CCCC3
[A] 99.7

[Q] Supply viability at 28.5 h, 10 µM value. Item: CCc1nc2c(OCc3ccccc3)cccn2c1N(C)C(=O)Nc1ccccc1OC
[A] 98.7

[Q] Supply viability at 28.5 h, 10 µM value. Item: O=C(c1c[nH]c2ccccc12)N1CCc2ccccc2C1
[A] 113
